test: Cmax in NMRI mouse at 10 mg/kg, ip by UPLC-MS/MS analysis; assay type: ADME, organism-based; design: dose 10 mg/kg, route ip; conditions: in vivo
METRIC: Cmax (ng/mL)
Reply with just the number (in ng/mL).

# get_value(readout='Cmax', item= `Nc1nc(NC2CCCCC2)sc1C(=O)c1c(F)cccc1F` )
830

----------
test: Cmax in HRN mouse at 10 mg/kg, ip by UPLC-MS/MS analysis; format: ADME, organism-based; set-up: dose 10 mg/kg, route ip; settings: in vivo
METRIC: Cmax (ng/mL)
Reply with just the number (in ng/mL).

# get_value(readout='Cmax', item= `Nc1nc(NC2CCCCC2)sc1C(=O)c1c(F)cccc1F` )
3800

----------
Each record here notes measured pEC50.
tested on: Trypanosoma brucei; assay: Antiparasitic activity against bloodstream-stage Trypanosoma brucei measured after 73 hrs by resazurin assay; type: functional, organism-based
Answer as the number alone; pEC50 is minus log10 of concentration in mol/L.

1. Nc1nc(NC2CCCCC2)sc1C(=O)c1c(F)cccc1F :: 6.96

# get_value(readout='pEC50', item= `CC(C)(C)C(=O)c1sc(NC2CCCCC2)nc1N` )
6.59

----------
experiment: Tmax in NMRI mouse at 10 mg/kg, ip by UPLC-MS/MS analysis; assay type: ADME, organism-based; settings: in vivo
METRIC: Tmax
Please make sure the unit comes right after the number.

# get_value(readout='Tmax', item= `Nc1nc(NC2CCCCC2)sc1C(=O)c1c(F)cccc1F` )
15 min

----------
assay: Antiproliferative activity against human MRC5 cells in presence of 5% Co2 incubated for 69 hrs followed by resazurin addition further incubated for 4 hrs; format: toxicity, cell-based
Each record here notes measured EC50 at 69 h.
Reply with just the number (in µM).

1) Nc1nc(Nc2ccc(F)c(F)c2)sc1C(=O)CN1CCOCC1 :: 50
2) CC(OCC(=O)c1sc(Nc2ccc(F)c(F)c2)nc1N)C(F)(F)F (stereo unspecified) :: 50
3) Nc1nc(Nc2ccc(F)c(F)c2)sc1C(=O)COC(CF)CF :: 50
4) Nc1nc(NC2CCCCC2)sc1C(=O)c1ccccc1F :: 2
5) Nc1nc(NC2CCCCC2)sc1C(=O)c1c(F)cccc1F :: 1.2

# get_value(readout='EC50 at 69 h', item= `Nc1nc(Nc2ccc(F)c(F)c2)sc1C(=O)CN1C[C@@H]2C[C@H]1CO2` )
50

# get_value(readout='EC50 at 69 h', item= `CCOCC(=O)c1sc(Nc2ccc(F)c(F)c2)nc1N` )
50

# get_value(readout='EC50 at 69 h', item= COc1ccc(Nc2nc(N)c(C(=O)COC(C)C(F)(F)F)s2)cn1 (stereo unspecified) )
50

----------
test: AUC in HRN mouse at 10 mg/kg, […] by UPLC-MS/MS analysis; format: ADME, organism-based; parameters: dose 10 mg/kg; conditions: in vivo
METRIC: AUC (µg·h/mL)
Reply with just the number (in µg·h/mL).

# get_value(readout='AUC', item= `Nc1nc(NC2CCCCC2)sc1C(=O)c1c(F)cccc1F` )
1000

----------
assay: Metabolic stability in CD1 mouse liver microsomes assessed as intrinsic clearance by UPLC-MS/MS analysis; type: ADME
Rule: measured CLH below 8 mL/min/g gets class 1; anything equal to or greater than 8 mL/min/g gets class 0.

1) CC(C)(O)CC(=O)c1sc(Nc2ccc(F)c(F)c2)nc1N :: class 1

Strictly below 8 mL/min/g: is that where CLH of `CC(C)(C)C(=O)c1sc(NC2CCCCC2)nc1N` sits?
class 1

Strictly below 8 mL/min/g: is that where CLH of `CC(C)C(=O)c1sc(NC2CCCCC2)nc1N` sits?
class 1

Strictly below 8 mL/min/g: is that where CLH of `Nc1nc(Nc2ccc(F)c(F)c2)sc1C(=O)CN1CCCCC1` sits?
class 1

Strictly below 8 mL/min/g: is that where CLH of CC(OCC(=O)c1sc(Nc2ccc3c(c2)OC(F)(F)O3)nc1N)C(F)(F)F (configuration not stated) sits?
class 1

Strictly below 8 mL/min/g: is that where CLH of CC1CCCN1CC(=O)c1sc(Nc2ccc(F)c(F)c2)nc1N (configuration not stated) sits?
class 1

Strictly below 8 mL/min/g: is that where CLH of `Nc1nc(NC2CCCCC2)sc1C(=O)c1ccc(F)c(F)c1` sits?
class 0

Strictly below 8 mL/min/g: is that where CLH of `O=C(c1cnc(NC2CCCCC2)s1)C1CCCCC1` sits?
class 0

Strictly below 8 mL/min/g: is that where CLH of `Nc1nc(NC2CCCCC2)sc1C(=O)c1ccc(C(F)(F)F)cc1` sits?
class 1

Strictly below 8 mL/min/g: is that where CLH of CC(OCC(=O)c1sc(Nc2ccn(C)n2)nc1N)C(F)(F)F (configuration not stated) sits?
class 0

Strictly below 8 mL/min/g: is that where CLH of `Nc1nc(Nc2ccc(F)c(F)c2)sc1C(=O)CN1CCOCC1` sits?
class 1

----------
experiment: Tmax in HRN mouse at 10 mg/kg, ip by UPLC-MS/MS analysis; type: ADME, organism-based; details: in vivo
METRIC: Tmax (min)
Reply with just the number (in min).

# get_value(readout='Tmax', item= `Nc1nc(NC2CCCCC2)sc1C(=O)c1c(F)cccc1F` )
30

----------
assay: Cmax in NMRI mouse at 10 mg/kg, po by UPLC-MS/MS analysis; format: ADME, organism-based; parameters: dose 10 mg/kg, route po; conditions: in vivo
METRIC: Cmax (ng/mL)
Reply with just the number (in ng/mL).

# get_value(readout='Cmax', item= `Nc1nc(NC2CCCCC2)sc1C(=O)c1c(F)cccc1F` )
33

----------
assay: Tmax in NMRI mouse at 50 mg/kg, ip by UPLC-MS/MS analysis; type: ADME, organism-based; settings: in vivo
METRIC: Tmax
Please make sure the unit comes right after the number.

# get_value(readout='Tmax', item= `CC(C)(O)CC(=O)c1sc(Nc2ccc(F)c(F)c2)nc1N` )
30 min

----------
assay: Metabolic stability in human liver microsomes assessed as intrinsic clearance by UPLC-MS/MS analysis; type: ADME
Each record here notes measured CLH.
Reply with just the number (in mL/min/g).

1) CC(C)CC(=O)c1sc(Nc2ccc(F)c(F)c2)nc1N :: 3.2

# get_value(readout='CLH', item= `Nc1nc(NC2CCCCC2)sc1C(=O)c1ccc(OC(F)F)cc1` )
0.8

----------
test: Metabolic stability in CD1 mouse liver microsomes assessed as intrinsic clearance by UPLC-MS/MS analysis; assay type: ADME
METRIC: CLH (mL/min/g)
Reply with just the number (in mL/min/g).

1. CC(C)(C)CC(=O)c1sc(Nc2ccc(F)c(F)c2)nc1N :: 4.6

# get_value(readout='CLH', item= `Nc1nc(NC2CCCCC2)sc1C(=O)c1ccc(F)cc1F` )
6.5

# get_value(readout='CLH', item= `Nc1nc(Nc2ccc(F)c(F)c2)sc1C(=O)CN1CCC(F)(F)CC1` )
9.3

# get_value(readout='CLH', item= `Nc1nc(NC2CCCCC2)sc1C(=O)c1cc(F)cc(F)c1` )
3.6

# get_value(readout='CLH', item= `Nc1nc(Nc2ccc(F)c(F)c2)sc1C(=O)COC1CCC1` )
9

# get_value(readout='CLH', item= `Nc1nc(NC2CCCCC2)sc1C(=O)C1CCC1` )
21

# get_value(readout='CLH', item= `Nc1nc(Nc2ccccc2)sc1C(=O)c1ccc(F)cc1` )
7.3

# get_value(readout='CLH', item= CC(OCC(=O)c1sc(Nc2ccc(F)c(F)c2)nc1N)C(F)(F)F (stereo not given) )
7.4

# get_value(readout='CLH', item= `Nc1nc(NC2CCCCC2)sc1C(=O)c1c(Cl)cccc1Cl` )
4.1

# get_value(readout='CLH', item= COc1ccc(Nc2nc(N)c(C(=O)COC(C)C(F)(F)F)s2)cn1 (stereo not given) )
9

----------
assay: Cmax in NMRI mouse at 50 mg/kg, ip by UPLC-MS/MS analysis; format: ADME, organism-based; set-up: dose 50 mg/kg, route ip; conditions: in vivo
METRIC: Cmax (µg/mL)
Reply with just the number (in µg/mL).

# get_value(readout='Cmax', item= `CC(C)(O)CC(=O)c1sc(Nc2ccc(F)c(F)c2)nc1N` )
18

----------
Each record here notes measured log10 of CLH.
assay: Metabolic stability in CD1 mouse liver microsomes assessed as intrinsic clearance by UPLC-MS/MS analysis; assay type: ADME
A value of 2 here means CLH of 100 in mL/min/g, since values are log10.

Completed entries (count: 4):
1) Nc1nc(Nc2ccc(F)c(F)c2)sc1C(=O)COC1CC(F)(F)C1(F)F (stereo not drawn) :: 0.72
2) Nc1nc(NC2CCCCC2)sc1C(=O)C1CCCCC1 :: 0.95
3) COC(C)(C)C(=O)c1sc(NC2CCCCC2)nc1N :: 0.58
4) Nc1nc(Nc2ccc(F)c(F)c2)sc1C(=O)CN1C[C@@H]2C[C@H]1CO2 :: 0.61

# get_value(readout='log10 of CLH', item= CC(OCC(=O)c1sc(Nc2ccc(Cl)cc2)nc1N)C(F)(F)F (stereo not drawn) )
0.72

# get_value(readout='log10 of CLH', item= `C[C@@H]1CN(CC(=O)c2sc(Nc3ccc(F)c(F)c3)nc2N)C[C@H](C)O1` )
0.91

# get_value(readout='log10 of CLH', item= `COC(C)(C)CC(=O)c1sc(Nc2ccc(F)c(F)c2)nc1N` )
0.79

# get_value(readout='log10 of CLH', item= `Nc1nc(NC2CCCCC2)sc1C(=O)c1c(F)cccc1F` )
1.18
